Numbers sourced from patent US8895695B2.

System: human red blood cells (hRBC)
Assay: Hemolysis
Type: cell-based
Numbered stars: 1 amine (or outer) side, 2 acyl side, 3 side chain; on linkers, the order of the positions; unused ones are H or OH. Bridge positions count the residues as written; N and C are the ends. Square brackets hold non-standard residues; d marks the D form. Peptide text beside a SMILES is read from it. X2 = CN1CCN(CCCN(CC(=O)[*:2])[*:1])CC1; 2Nal = N[C@@H](Cc1ccc2ccccc2c1)C(=O)O; Cit = NC(=O)NCCC[C@H](N)C(=O)O; Dab = NCC[C@H](N)C(=O)O
Quick reference: Hemolysis at 100 μM of the listed items.
# output: bare number, implied unit %

Consider the following illustrative entries.
compound	display-unit	Hemolysis at 100 μM
N=C(N)NCCC[C@@H]1NC(=O)CNC(=O)CNC(=O)[C@H](CCCNC(=N)N)NC(=O)[C@@H]2CSSC[C@H](NC(=O)[C@H](Cc3ccc4ccccc4c3)NC(=O)[C@H](CCCNC(=N)N)NC1=O)C(=O)N[C@@H](Cc1ccc(O)cc1)C(=O)N[C@@H](CCCNC(N)=O)C(=O)N[C@@H](CCCCN)C(=O)N1CCC[C@@H]1C(=O)N1CCC[C@H]1C(=O)N[C@@H](Cc1ccc(O)cc1)C(=O)N[C@@H](CCCNC(=N)N)C(=O)N[C@@H](CCCNC(N)=O)C(=O)N2 [Ex. 52] (cyclo(YR[Cit]CRGGRR[2Nal]CY[Cit]K[dP]P); disulfide 4-11)	%	0
N=C(N)NCCC[C@@H]1NC(=O)[C@@H]2CSSC[C@H](NC(=O)[C@H](Cc3ccc4ccccc4c3)NC(=O)[C@H](CCCNC(=N)N)NC(=O)[C@H](CCCNC(=N)N)NC(=O)[C@H]3CCCN3C(=O)CNC1=O)C(=O)N[C@@H](Cc1ccc(O)cc1)C(=O)N[C@@H](Cc1c[nH]cn1)C(=O)N[C@@H](CCCCN)C(=O)N1CCC[C@@H]1C(=O)N1CCC[C@H]1C(=O)N[C@@H](Cc1ccc(O)cc1)C(=O)N[C@@H](CCCNC(=N)N)C(=O)N[C@@H](CCCNC(N)=O)C(=O)N2 [Ex. 58] (cyclo(YR[Cit]CRG[dP]RR[2Nal]CYHK[dP]P); disulfide 4-11)	%	0
CN1CCN(CCCN2CC(=O)N[C@@H](Cc3ccc4ccccc4c3)C(=O)N[C@H]3CSSC[C@H](NC(=O)[C@H](CCCNC(N)=O)NC(=O)[C@H](CCCNC(=N)N)NC(=O)[C@H](Cc4ccc(O)cc4)NC(=O)[C@@H]4CCCN4C(=O)[C@H]4CCCN4C(=O)[C@H](CCCCN)NC(=O)[C@H](CCCNC(N)=O)NC(=O)[C@H](Cc4ccc(O)cc4)NC3=O)C(=O)N[C@@H](CCCNC(=N)N)C(=O)NCC(=O)N3CCC[C@@H]3C(=O)N[C@@H](CCCNC(=N)N)C2=O)CC1 [Ex. 126] (cyclo(YR[Cit]CRG[dP]R[X2][2Nal]CY[Cit]K[dP]P); disulfide 4-11)	%	0
N=C(N)NCCC[C@@H]1NC(=O)[C@@H]2CSSC[C@H](NC(=O)[C@H](Cc3ccc4ccccc4c3)NC(=O)[C@H](CCCNC(=N)N)NC(=O)[C@H](CCCNC(=N)N)NC(=O)[C@H]3CCCN3C(=O)CNC1=O)C(=O)N[C@@H](Cc1ccc(O)cc1)C(=O)N[C@@H](CCC(N)=O)C(=O)N[C@@H](CCCCN)C(=O)N1CCC[C@@H]1C(=O)N1CCC[C@H]1C(=O)N[C@@H](Cc1ccc(O)cc1)C(=O)N[C@@H](CCCNC(=N)N)C(=O)N[C@@H](Cc1c[nH]cn1)C(=O)N2 [Ex. 70] (cyclo(YRHCRG[dP]RR[2Nal]CYQK[dP]P); disulfide 4-11)	%	0.2
N=C(N)NCCC[C@@H]1NC(=O)[C@@H]2CSSC[C@H](NC(=O)[C@H](Cc3ccc4ccccc4c3)NC(=O)[C@H](CCCNC(=N)N)NC(=O)[C@H](CCCNC(=N)N)NC(=O)[C@H]3CCCN3C(=O)CNC1=O)C(=O)N[C@@H](Cc1ccc(O)cc1)C(=O)N[C@@H](CCC(N)=O)C(=O)N[C@@H](CCCCN)C(=O)N1CCC[C@@H]1C(=O)N1CCC[C@H]1C(=O)N[C@@H](Cc1ccc(O)cc1)C(=O)N[C@@H](CCCNC(=N)N)C(=O)N[C@@H](CO)C(=O)N2 [Ex. 96] (cyclo(YRSCRG[dP]RR[2Nal]CYQK[dP]P); disulfide 4-11)	%	1

**Q:** Bench note: what Hemolysis at 100 μM did N=C(N)NCCC[C@@H]1NC(=O)[C@H](CCCNC(=N)N)NC(=O)[C@H]2CCCN2C(=O)CNC(=O)[C@H](CCN)NC(=O)[C@@H]2CSSC[C@H](NC(=O)[C@H](Cc3c[nH]c4ccccc34)NC1=O)C(=O)N[C@@H](Cc1ccc(O)cc1)C(=O)N[C@@H](CCC(N)=O)C(=O)N[C@@H](CCCCN)C(=O)N1CCC[C@@H]1C(=O)N1CCC[C@H]1C(=O)N[C@@H](Cc1ccc(O)cc1)C(=O)N[C@@H](CCCNC(=N)N)C(=O)N[C@@H](CCCNC(N)=O)C(=O)N2 [Ex. 111] (cyclo(YR[Cit]C[Dab]G[dP]RRWCYQK[dP]P); disulfide 4-11) show?
**A:** 0

**Q:** And for CC(C)[C@@H]1NC(=O)[C@H](CCCNC(N)=O)NC(=O)[C@H](CCCNC(=N)N)NC(=O)[C@H](Cc2ccc(O)cc2)NC(=O)[C@@H]2CCCN2C(=O)[C@H]2CCCN2C(=O)[C@H](CCCCN)NC(=O)[C@H](CCCNC(N)=O)NC(=O)[C@H](Cc2ccc(O)cc2)NC(=O)[C@H](C(C)C)NC(=O)[C@H](Cc2ccc3ccccc3c2)NC(=O)[C@H](CCCNC(=N)N)NC(=O)[C@H](CCCNC(=N)N)NC(=O)[C@H](CCCNC(=N)N)NC1=O [Ex. 6] (cyclo(YR[Cit]VRRR[2Nal]VY[Cit]K[dP]P)) ?
**A:** 0.6

**Q:** And for CSCC[C@@H]1NC(=O)[C@@H]2CCCN2C(=O)[C@H]2CCCN2C(=O)[C@H](CCCCN)NC(=O)[C@H](CCC(N)=O)NC(=O)[C@H](Cc2ccc(O)cc2)NC(=O)[C@@H]2CSSC[C@H](NC(=O)[C@H](CCCNC(N)=O)NC(=O)[C@H](CCCNC(=N)N)NC1=O)C(=O)N[C@@H](CCCNC(=N)N)C(=O)NCC(=O)N1CCC[C@@H]1C(=O)N[C@@H](CCCNC(=N)N)C(=O)N[C@@H](CCCNC(=N)N)C(=O)N[C@@H](Cc1ccc3ccccc3c1)C(=O)N2 [Ex. 91] (cyclo(MR[Cit]CRG[dP]RR[2Nal]CYQK[dP]P); disulfide 4-11) ?
**A:** 0.2
